# System: SBS#386 ZFP (synthetic)
# Test Summary: EMSA
# Reported Conditions: 100 mM KCl, 1 mM MgCl2, 100 uM ZnCl2, pH 7.5, RT
Endpoint: Kd (nM)
The reply should contain only the number, in nM.

Enquiry: Which value of Kd has been reported for GGGGCGGAG (double strand) [SBS#386 target (-111)] in the records?
Return: 0.4

###

# Tested on: SBS#1770 ZFP (synthetic)
# Test Summary: EMSA
# Reported Conditions: target also SEQ 111; 100 mM KCl, 1 mM MgCl2, 100 uM ZnCl2, pH 7.5, RT
Endpoint: pKd
Please note pKd is a logarithmic value: minus log10 of concentration in mol/L. Answer with that number alone.

Enquiry: Which value of pKd has been reported for CGGGGAGGA (double strand) [SBS#1756/1770 target (-342)] in the records?
Return: 11.00
